# Tested on: HEK293 cells
# Protocol Text: Cell cycle analysis by FACS of HEK293 cells
# Type: cell-based
# Experimental Parameters: HEK293, 50 μM, treated 16 to 24 hrs
# Experimental: Fluorescence-activated cell sorting (FACS) analysis was used to examine the cell cycle state when the cells were incubated with compounds of formula (I) as well as several control compounds, including DMSO, noscapine (a known G2/M inhibitor), and colchicine (a known G2/M inhibitor). […] The DNA content of cells was determined using a FacsVantage SE flow cytometry system (Becton Dickinson, San Jose, Calif.) and a Cellular DNA Flow Cytometric Analysis Kit (Roche Applied Science, Indianapolis, Ind.). […]
I'd be grateful if you could share measured Percent of Cells in S for these entries.
One number for each entry, in %.

Would you please look over these solved cases?
>  <Compound>
COc1cc(COc2c(OC)ccc3c2C(=O)OC3[C@H]2c3c(cc4c(c3OC)OCO4)CCN2C)cc(OC)c1OC (stereo partly shown)

>  <Measurement>
80.7

$$$$
>  <Compound>
COc1ccc2c(c1C#N)C(=O)O[C@@H]2[C@H]1c2c(cc3c(c2OC)OCO3)CCN1C

>  <Measurement>
8.8

$$$$

Answer for every listed entry: what is its Percent of Cells in S? The entries follow.
1. COc1ccc2c(c1OCc1ccccc1)C(=O)OC2[C@H]1c2c(cc3c(c2OC)OCO3)CCN1C (stereo partly shown)
2. COc1ccc2c(c1OC)C(=O)O[C@@H]2[C@H]1c2c(cc3c(c2OC)OCO3)CCN1C [Noscapine, noscapine, reference compound]

OUT:
71.2
31.1
